# Test system: T47D
# protocol.description: NCI tumour cell line growth inhibition, 48 h
Active and inactive are the calls of the source. Cut-off read from the data, not from the text of the source: active = GI50 up to about 1.1 µM and inactive = higher. Where a SMILES comes first, the peptide text is derived from it. [ ]: non-standard residue; d: D form. The star is where a group is joined. ξ: configuration not given here. NMeF = CN[C@@H](Cc1ccccc1)C(=O)O; NMeV = CN[C@H](C(=O)O)C(C)C; ξNMeN = CNC(CC(N)=O)C(=O)O; NMeA = CN[C@@H](C)C(=O)O; ξNMeV = CNC(C(=O)O)C(C)C; Boc = CC(C)(C)OC(=O)*
Could you please report measured GI50 for the items listed next?

Which GI50 value belongs to CCOC(=O)C1C(=O)CC(C)(O)C(C(=O)OCC)C1c1ccc(OC)cc1 (configuration not stated) ?
> 100 µM (inactive)

// query: `O=C(O)c1cc(C(=O)C(=O)c2cc(C(=O)O)c(O)c3ccccc23)c2ccccc2c1O`
> 100 µM (inactive)

Then CCOC(=O)c1cc2c3c(c(C(C)=O)c(O)c2[nH]1)N(CC(C)CC)CC3 (configuration not stated) ?
21.9 µM (inactive)

And what about the compound CCCC(=O)NC(NC1CCCCC1)(C(=O)OCC)C(F)(F)F (configuration not stated) ?
> 100 µM (inactive)

Likewise for `Cn1ccc(C(=O)NCCN(CCNC(=O)c2ccn(C)c(=O)c2O)CCNC(=O)c2ccn(C)c(=O)c2O)c(O)c1=O` ?
> 100 µM (inactive)

Follow-up item: `N#CC(C#N)=C(N)/C(C#N)=C/c1ccc2[nH]ccc2c1`
> 100 µM (inactive)

Here is the next compound: `CCC(C)(C)/C(CC(O)(C(F)(F)F)C(F)(F)F)=N\O`
> 100 µM (inactive)

Would you kindly repeat that for `C[C@]12CC[C@H]3[C@@H](CCC4=C[C@@H](N5CCCC5)CC[C@@]43C)[C@@H]1C/C(=C\c1ccncc1)[C@@H]2O` ?
16.4 µM (inactive)

Could you do the same for `CN(C)CCCNC1=C(Cl)C(=O)c2c(O)ccc(O)c2C1=O` , please?
2.09 µM (inactive)

Ok, now OCC(O)COCn1nncc1Cn1ncc2c(SCc3ccccc3)ncnc21 (configuration not stated)
> 100 µM (inactive)

Could you do the same for CC(=O)OC1OC(c2ccoc2)C[C@@]12C1CCC3O[C@]3(C)[C@]1(C)C[C@H](OC(C)=O)[C@H]2C (some centres not stated) , please?
35.2 µM (inactive)

What would you report for `Oc1cc(-c2ccccc2)nc2c(S)cccc12` ?
29 µM (inactive)

What do we get for CC(Oc1ccc(Cl)cc1Cl)C(=O)NN1C(=O)CSC1c1ccc(Cl)cc1 (configuration not stated) ?
42.5 µM (inactive)

Another compound: `Nc1ccc(C2(c3ccc(N)cc3)C3CC4CC(C3)CC2C4)cc1`
14.5 µM (inactive)

Moving on to the next compound: COC(=O)[C@H](C)N(C)C(=O)C(CC(N)=O)N(C)C(=O)[C@H](Cc1ccccc1)N(C)C(=O)[C@@H]1CCCN1C(=O)[C@H](C(C)C)N(C)C(=O)C(C(C)C)N(C)C(=O)[C@@H](NC(=O)OC(C)(C)C)C(C)C (some centres not stated) (Boc-V[ξNMeV][NMeV]P[NMeF][ξNMeN][NMeA]-OMe)
> 50 µM (inactive)

Same read-out for CC(C)C(NC(=O)C(Cc1ccccc1)NC(=O)[C@H]1CCC[C@H]1NC(=O)C(N)Cc1ccc(O)cc1)C(N)=O (some centres not stated) ?
> 100 µM (inactive)

Would you kindly repeat that for `C/C(=N/NC(=O)c1ccccc1Nc1ccccc1C(=O)N/N=C(\C)c1ccc(C)cc1)c1ccc(C)cc1` ?
> 100 µM (inactive)
